System: MDA-MB-435
testSummary: NCI tumour cell line growth inhibition, 48 h
Where a SMILES comes first, the peptide text is derived from it.
Kindly supply the reported TGI values for the records listed here.

>>> result("CC(C)CC(NC(=O)C(Cc1ccccc1)NC(=O)C(Cc1c[nH]c2ccccc12)NC(=O)CNC(=O)C(N)Cc1ccc(O)cc1)C(=O)O (centres undefined) (H-YGWFL-OH; configuration not given here)")
"> 100 µM"
>>> result("C/C(=N\\NC(=S)N1CCCCCCCCCCCC1)c1ccccn1")
"0.721 µM"

Count: 4. Required value per item: TGI.
1. O=c1[nH]nc(Cn2c3ccc(Br)cc3c3nc4ccccc4nc32)n1C1CCCCC1
2. N#Cc1c(O)c(N=Nc2ccc(Cl)cc2)c(=O)n2c1[nH]c1ccccc12
3. Nc1nc2ccc(OCC(O)CN3CCCCC3)cc2[n+]([O-])n1 (centres undefined)
4. COC(=O)C1=C(C(=O)OC)SC(=C2S[C@@H]3[C@@H]4C[C@H]([C@@H]3S2)[C@H]2C(=O)OC(=O)[C@@H]42)S1

(A)
1. > 100 µM
2. > 100 µM
3. > 100 µM
4. > 100 µM

Count: 3. Required value per item: TGI.
1. CN(C)c1ccc(-c2ccc(N(C)C)c3n[se]nc23)c2n[se]nc12
2. C/C=C/[C@H]1O[C@@H]2C(=C[C@H]1O)C(=O)O[C@H]2C
3. NC(=O)/C=c1/c2ccccc2n2nc3ccccc3c12

(A)
["> 100 µM", "43.5 µM", "35.1 µM"]
